- Particulars: in n-propanol, 288.15 K
Outcome measure: solubility (mole fraction)
// print number alone

IN: // fetch solubility (mole fraction) given entry Cc1ccc(S(=O)(=O)NC(=O)NN2CC3CCCC3C2)cc1 (stereo unspecified)
OUT: 0.00103

---

- Particulars: in DMF, 318.15 K
Outcome measure: solubility (mole fraction)
// print number alone

IN: // fetch solubility (mole fraction) given entry Cc1ccc(S(=O)(=O)NC(=O)NN2CC3CCCC3C2)cc1 (stereo unspecified)
OUT: 0.109

---

- Particulars: in n-propanol, 283.15 K
Outcome measure: solubility (mole fraction)

IN: // fetch solubility (mole fraction) given entry Cc1ccc(S(=O)(=O)NC(=O)NN2CC3CCCC3C2)cc1 (stereo unspecified)
OUT: 0.000831
